The reported numbers originate from ChEMBL document CHEMBL1153580.

- Tested on: Rattus norvegicus
- METHOD: Antihypertensive activity in Norwegian albino rat assessed as inhibition of DOCA salt-induced diastolic blood pressure at 10 mg/kg, po after 15 mins by invasive carotid artery cannulation method
- Format: functional
- CONDITION DESCRIPTION: 0.25 h
# binarize inhibition in vivo at 10 mg/kg: threshold 2% inclusive, high side 1, low side -1

Prompt: Has CCOC(=O)C1=C(C)NC(OC)N(CC(=O)c2ccc(Cl)cc2)C1c1ccc(OC)cc1 (stereo unspecified) a recorded inhibition in vivo at 10 mg/kg greater than or equal to 2%?
Completion: -1

Prompt: Has CCOC(=O)C1=C(C)NC(OC)N(CC(=O)c2ccc(OC)cc2)C1c1ccc(C)cc1 (stereo unspecified) a recorded inhibition in vivo at 10 mg/kg greater than or equal to 2%?
Completion: 1

Prompt: Has CCOC(=O)C1=C(C)NC(OC)N(CC(=O)c2ccccc2)C1c1ccc(C)cc1 (stereo unspecified) a recorded inhibition in vivo at 10 mg/kg greater than or equal to 2%?
Completion: 1

Prompt: Has CCOC(=O)C1=C(C)NC(OC)N(CC(=O)c2ccccc2)C1c1ccc(OC)cc1 (stereo unspecified) a recorded inhibition in vivo at 10 mg/kg greater than or equal to 2%?
Completion: 1

Prompt: Has CCOC(=O)C1=C(C)NC(OC)N(CC(=O)c2ccc(Cl)cc2)C1c1ccc(O)cc1 (stereo unspecified) a recorded inhibition in vivo at 10 mg/kg greater than or equal to 2%?
Completion: -1

Prompt: Has CCOC(=O)C1=C(C)NC(OC)N(CC(=O)c2ccc(Cl)cc2)C1c1ccc(C)cc1 (stereo unspecified) a recorded inhibition in vivo at 10 mg/kg greater than or equal to 2%?
Completion: 1

====

Assignment: determine reported inhibition in vivo at 10 mg/kg for the given molecules.
- Tested on: Rattus norvegicus
- METHOD: Antihypertensive activity in Norwegian albino rat assessed as inhibition of DOCA salt-induced diastolic blood pressure at 10 mg/kg, po after 15 mins by invasive carotid artery cannulation method
- Type: functional
- CONDITION DESCRIPTION: 0.25 h
Answer with a number only, understood to be in %.

Prompt: Find the measured inhibition in vivo at 10 mg/kg of COC(=O)C1=C(C)NC(C)=C(C(=O)OC)C1c1ccccc1[N+](=O)[O-] and report it.
Completion: 2.51

Prompt: Find the measured inhibition in vivo at 10 mg/kg of CCOC(=O)C1=C(C)NC(OC)N(CC(=O)c2ccc(OC)cc2)C1c1ccc(OC)cc1 (stereo not given) and report it.
Completion: 3.33

Prompt: Find the measured inhibition in vivo at 10 mg/kg of CCOC(=O)C1=C(C)NC(OC)N(CC(=O)c2ccc(OC)cc2)C1c1ccccc1 (stereo not given) and report it.
Completion: 1.84

Prompt: Find the measured inhibition in vivo at 10 mg/kg of CCOC(=O)C1=C(C)NC(OC)N(CC(=O)c2ccc(Cl)cc2)C1c1ccc(Cl)cc1 (stereo not given) and report it.
Completion: 1.84

Prompt: Find the measured inhibition in vivo at 10 mg/kg of CCOC(=O)C1=C(C)NC(OC)N(CC(=O)c2ccc(Cl)cc2)C1c1ccccc1 (stereo not given) and report it.
Completion: 2.35

====

- Tested on: Rattus norvegicus
- METHOD: Antiinflammatory activity in Norwegian albino rat assessed as inhibition of carrageenan-induced paw edema at 100 mg/kg, po after administered 60 mins prior to carrageenan-challenge measured after 3 hrs
- Format: functional
Assignment: determine reported inhibition in vivo at 100 mg/kg for the given molecules.
Answer with a number only, understood to be in %.

Prompt: // output inhibition in vivo at 100 mg/kg; input CCOC(=O)C1=C(C)NC(OC)N(CC(=O)c2ccc(OC)cc2)C1c1ccc(C)cc1 (centres undefined) ; system Rattus norvegicus
Completion: 39.8

Prompt: // output inhibition in vivo at 100 mg/kg; input CCOC(=O)C1=C(C)NC(OC)N(CC(=O)c2ccccc2)C1c1ccc(Cl)cc1 (centres undefined) ; system Rattus norvegicus
Completion: 41

Prompt: // output inhibition in vivo at 100 mg/kg; input CCOC(=O)C1=C(C)NC(OC)N(CC(=O)c2ccc(Cl)cc2)C1c1ccc(OC)cc1 (centres undefined) ; system Rattus norvegicus
Completion: 39.5

Prompt: // output inhibition in vivo at 100 mg/kg; input CCOC(=O)C1=C(C)NC(OC)N(CC(=O)c2ccc(OC)cc2)C1c1ccccc1 (centres undefined) ; system Rattus norvegicus
Completion: 38.4

Prompt: // output inhibition in vivo at 100 mg/kg; input CCOC(=O)C1=C(C)NC(OC)N(CC(=O)c2ccc(OC)cc2)C1c1ccc(OC)cc1 (centres undefined) ; system Rattus norvegicus
Completion: 39.8

Prompt: // output inhibition in vivo at 100 mg/kg; input COc1ccc2c(c1)c(CC(=O)O)c(C)n2C(=O)c1ccc(Cl)cc1 ; system Rattus norvegicus
Completion: 51.8

Prompt: // output inhibition in vivo at 100 mg/kg; input CCOC(=O)C1=C(C)NC(OC)N(CC(=O)c2ccccc2)C1c1ccc(OC)cc1 (centres undefined) ; system Rattus norvegicus
Completion: 40.5

Prompt: // output inhibition in vivo at 100 mg/kg; input CCOC(=O)C1=C(C)NC(OC)N(CC(=O)c2ccccc2)C1c1ccccc1 (centres undefined) ; system Rattus norvegicus
Completion: 41

Prompt: // output inhibition in vivo at 100 mg/kg; input CCOC(=O)C1=C(C)NC(OC)N(CC(=O)c2ccccc2)C1c1ccc(C)cc1 (centres undefined) ; system Rattus norvegicus
Completion: 37.9
